Assay: Cytotoxicity against human HCT116 cells at 10 ug/mL by MTT assay
Type: cell-based, HCT-116
Details: read-out: INH
Endpoint Name: cytotoxicity at 10 ug/mL (%)
Write it as a number; the unit % goes unstated.

Field: example entries. Status: answers known.
Cc1ccc(N2C(=O)CSC2c2ccc([N+](=O)[O-])cc2)cc1 (stereo not drawn)    -14.6
O=C1CSC(c2ccc(Cl)cc2)N1c1ccc(F)cc1 (stereo not drawn)    0.2
Cc1ccc(C2SCC(=O)N2c2ccccc2)cc1 (stereo not drawn)    -11.9
Cc1ccc(N2C(=O)CSC2c2ccccc2)cc1 (stereo not drawn)    20.5
O=C1CSC(c2ccc(Cl)cc2)N1c1ccccc1 (stereo not drawn)    0
Cc1ccc(N2C(=O)CSC2c2ccc(Cl)cc2)cc1 (stereo not drawn)    7.2
COc1ccc(C2SCC(=O)N2c2ccc(Cl)cc2)cc1 (stereo not drawn)    -2.3
COc1ccc(C2SCC(=O)N2c2ccccc2)cc1 (stereo not drawn)    7.2

Alright, here's another molecule for you.
Ask: Fill in cytotoxicity at 10 ug/mL for record O=C1CSC(c2ccccc2)N1c1ccc(Cl)cc1 (stereo not drawn)
Result: 30
